# measurement-protocol: Concentration in mouse serum after oral administration
# Assay type: in vivo, male ICR mice
# experimental-conditions: mouse, serum, 4 hr, dose not given
# concentration at 4 h listing for each entry below
quantity-kind: concentration at 4 h (ng/mL)

- molecule: "CC[C@H]1OC(=O)[C@H](C)[C@@H](O[C@H]2C[C@@](C)(OC)[C@@H](O)[C@H](C)O2)[C@H](C)[C@@H](O[C@@H]2O[C@H](C)C[C@H](N(C)C)[C@H]2O)[C@](C)(OC)C[C@@H](C)C(=O)[C@H](C)[C@@H](O)[C@]1(C)O [Comparative drug 3, 6-O-methylerythromycin A]"
  quantity-kind: "concentration at 4 h"
  result-value: 110
- molecule: "CC[C@H]1OC(=O)[C@H](C)C(=O)[C@H](C)[C@@H](O[C@@H]2O[C@H](C)C[C@H](N(C)C)[C@H]2O)[C@](C)(OC)C[C@@H](C)C(=O)[C@H](C)[C@H]2NC(=O)O[C@@]21C [Compound 1]"
  quantity-kind: "concentration at 4 h"
  result-value: 440
- molecule: "CC[C@H]1OC(=O)[C@H](C)C(=O)[C@H](C)[C@@H](O[C@@H]2O[C@H](C)C[C@H](N(C)C)[C@H]2O)[C@](C)(OC)C[C@@H](C)C(=O)[C@H](C)[C@H]2OC(=O)O[C@@]21C [Comparative drug 2]"
  quantity-kind: "concentration at 4 h"
  result-value: 260

###

# measurement-protocol: Concentration in mouse serum after oral administration
# Type: in vivo, male ICR mice
# experimental-conditions: mouse, serum, 2 hr, dose not given

- molecular-string: "CC[C@H]1OC(=O)[C@H](C)[C@@H](O[C@H]2C[C@@](C)(OC)[C@@H](O)[C@H](C)O2)[C@H](C)[C@@H](O[C@@H]2O[C@H](C)C[C@H](N(C)C)[C@H]2O)[C@](C)(OC)C[C@@H](C)C(=O)[C@H](C)[C@@H](O)[C@]1(C)O"
  concentration at 2 h: "110 ng/mL"
- molecular-string: "CC[C@H]1OC(=O)[C@H](C)C(=O)[C@H](C)[C@@H](O[C@@H]2O[C@H](C)C[C@H](N(C)C)[C@H]2O)[C@](C)(OC)C[C@@H](C)C(=O)[C@H](C)[C@H]2OC(=O)O[C@@]21C"
  concentration at 2 h: "280 ng/mL"
- molecular-string: "CC[C@H]1OC(=O)[C@H](C)C(=O)[C@H](C)[C@@H](O[C@@H]2O[C@H](C)C[C@H](N(C)C)[C@H]2O)[C@](C)(OC)C[C@@H](C)C(=O)[C@H](C)[C@H]2NC(=O)O[C@@]21C"
  concentration at 2 h: "600 ng/mL"

###

# measurement-protocol: Concentration in mouse serum after oral administration
# Type: in vivo, male ICR mice
# experimental-conditions: mouse, serum, 1 hr, dose not given
# Procedure: Concentration of the compound of the present invention in mouse serum was determined by using 10 male ICR mice, 4-week-old, for each group and using Comparative drugs 2 and 3 (as described in Experiment 1). The drug suspended in 5% gum arabic was administered orally to mice, the blood was collected with lapse of time, and the serum was separated. Concentration of the drug in the serum was measured by using M. luteus ATCC 9341 as approved bacteria according to the papar-disc method.

- compound: "CC[C@H]1OC(=O)[C@H](C)C(=O)[C@H](C)[C@@H](O[C@@H]2O[C@H](C)C[C@H](N(C)C)[C@H]2O)[C@](C)(OC)C[C@@H](C)C(=O)[C@H](C)[C@H]2OC(=O)O[C@@]21C [Comparative drug 2]"
  concentration at 1 h, ng/mL: 270
- compound: "CC[C@H]1OC(=O)[C@H](C)C(=O)[C@H](C)[C@@H](O[C@@H]2O[C@H](C)C[C@H](N(C)C)[C@H]2O)[C@](C)(OC)C[C@@H](C)C(=O)[C@H](C)[C@H]2NC(=O)O[C@@]21C [Compound 1]"
  concentration at 1 h, ng/mL: 770
- compound: "CC[C@H]1OC(=O)[C@H](C)[C@@H](O[C@H]2C[C@@](C)(OC)[C@@H](O)[C@H](C)O2)[C@H](C)[C@@H](O[C@@H]2O[C@H](C)C[C@H](N(C)C)[C@H]2O)[C@](C)(OC)C[C@@H](C)C(=O)[C@H](C)[C@@H](O)[C@]1(C)O [Comparative drug 3, 6-O-methylerythromycin A]"
  concentration at 1 h, ng/mL: 340
